- SYSTEM_UNDER_TEST: Aurora kinase A (Homo sapiens, UniProt O14965)
- Sequence (O14965 whole entry): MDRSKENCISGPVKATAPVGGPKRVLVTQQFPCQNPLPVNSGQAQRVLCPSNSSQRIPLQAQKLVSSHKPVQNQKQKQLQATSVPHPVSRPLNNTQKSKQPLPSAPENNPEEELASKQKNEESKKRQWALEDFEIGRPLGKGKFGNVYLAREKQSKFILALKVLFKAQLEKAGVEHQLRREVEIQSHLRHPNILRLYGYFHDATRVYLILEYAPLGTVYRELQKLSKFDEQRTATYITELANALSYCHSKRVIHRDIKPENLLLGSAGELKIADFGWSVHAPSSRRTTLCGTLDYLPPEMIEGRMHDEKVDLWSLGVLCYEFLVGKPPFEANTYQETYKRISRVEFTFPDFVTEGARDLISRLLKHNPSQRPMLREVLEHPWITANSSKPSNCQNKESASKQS
- PROTOCOL_TEXT: Inhibition of N-terminal HIS-tagged aurora-A (unknown origin) using 5FAM-LRRASLG-CONH2 as substrate after 60 mins
ASSAY_READOUT: IC50 (µM)
# value in µM; strip the unit string

Cc1nn(C)cc1-c1nc2ncc(Cl)c(N3CCC[C@@H](CNS(C)(=O)=O)C3)c2[nH]1    0.007
Cc1nn(C)cc1-c1nc2c(Oc3ccc(C(=O)Nc4ccccc4)cc3)ccnc2[nH]1    0.618
COc1ccc(-c2[nH]c3ncc(Cl)cc3c2-c2cccc(CNS(C)(=O)=O)c2)cc1    1.94
Cc1nn(C)cc1-c1nc2c(N3CCC[C@H](CN(C)S(C)(=O)=O)C3)c(Cl)cnc2[nH]1    0.005

Turning now to a further compound:
Incoming: Quick one: IC50 of `Cc1nn(C)cc1-c1nc2ncc(Cl)c(Oc3ccc(C(=O)NC4CCC4)cc3)c2[nH]1` ?
Outgoing: 0.015
